test: Pharmacokinetic study of 9-cis RA in rat (plasma HPLC, one-compartment model); conditions: male, Sprague-Dawley, plasma, other: p.o. and i.v. taken together, 9 mg, elimination half-life (t1/2), 9 mg 9-cis RA, p.o. and i.v. taken together
Observed property: half-life (min)

molecule="CC1=C(/C=C/C(C)=C\\C=C\\C(C)=C\\C(=O)O)C(C)(C)CCC1 [9-cis RA, 9-cis retinoic acid]" unit_string=min quantitative_readout=35

* * *

experiment: Pharmacokinetic study of 9-cis RA in rat (plasma HPLC, one-compartment model); conditions: intravenous administration, 9 mg 9-cis RA
Observed property: AUC (area under the curve) (ng·h/mL)

compound="CC1=C(/C=C/C(C)=C\\C=C\\C(C)=C\\C(=O)O)C(C)(C)CCC1 [9-cis RA, 9-cis retinoic acid]" observed_property="AUC (area under the curve)" unit_string=ng·h/mL quantitative_readout=80100
